assay.method.text: Buffer Stability (37° C.)
condition.context: pH 1
reported.endpoint: Buffer Stability (37° C.) % Remaining (at 16-23 hours) pH 1 (%)
One number for each entry, in %.

The cases that follow already have their Buffer Stability (37° C.) % Remaining (at 16-23 hours) pH 1 on record.
Task: Name the recorded Buffer Stability (37° C.) % Remaining (at 16-23 hours) pH 1 of the compound listed here: CN(C)C(=O)Oc1cc(OC(=O)N(C)C)c2c(c1)O/C(=C\c1cn(C)c3nccc(-c4ccccc4)c13)C2=O [Example 43]
Result: 100

Task: Identify the reported Buffer Stability (37° C.) % Remaining (at 16-23 hours) pH 1 for the following entry. COc1ccc2[nH]c(-c3ccccc3)c(/C=C3\Oc4cc(OC(=O)OC(C)C)cc(OC(=O)OC(C)C)c4C3=O)c2c1 [Example 7]
Result: 94

Task: Query Buffer Stability (37° C.) % Remaining (at 16-23 hours) pH 1 for COc1ccc2[nH]c(-c3ccccc3)c(/C=C3\Oc4cc(OC(=O)N(c5ccccc5)c5ccccc5)cc(OC(=O)N(c5ccccc5)c5ccccc5)c4C3=O)c2c1 [Example 11]
Result: 99

Now consider the entry below.
Task: Tell me its Buffer Stability (37° C.) % Remaining (at 16-23 hours) pH 1 given COc1ccc2[nH]c(-c3ccccc3)c(/C=C3\Oc4cc(OC(=O)Oc5ccccc5)cc(OC(=O)Oc5ccccc5)c4C3=O)c2c1 [Example 23] as the entry.
Result: 0

---

assay.method.text: Buffer Stability (37° C.)
condition.context: pH 4.5
reported.endpoint: Buffer Stability (37° C.) % Remaining (at 16-23 hours) pH 4.5 (%)
Give bare numbers, in %.

The following compounds have reported results that may help.
Task: For the compound COc1ccc2[nH]c(-c3ccccc3)c(/C=C3\Oc4cc(OC(=O)C(C)(C)C)cc(OC(=O)C(C)(C)C)c4C3=O)c2c1 , give its measured Buffer Stability (37° C.) % Remaining (at 16-23 hours) pH 4.5 value.
Result: 92

Task: Assign Buffer Stability (37° C.) % Remaining (at 16-23 hours) pH 4.5 to the following record: COc1ccc2c(c1)c(/C=C1\Oc3cc(OC(=O)N(C(C)C)C(C)C)cc(OC(=O)N(C(C)C)C(C)C)c3C1=O)cn2CCCN(C)C
Result: 100

Task: Please look at this compound and report its Buffer Stability (37° C.) % Remaining (at 16-23 hours) pH 4.5: COc1ccc2c(c1)c(/C=C1\Oc3cc(OC(=O)N(c4ccccc4)c4ccccc4)cc(OC(=O)N(c4ccccc4)c4ccccc4)c3C1=O)cn2CCCN(C)C
Result: 103

Task: Answer with the recorded Buffer Stability (37° C.) % Remaining (at 16-23 hours) pH 4.5 for the compound listed here: COc1ccc2[nH]c(-c3ccccc3)c(C=C3Oc4cc(O)cc(O)c4C3=O)c2c1
Result: 96

// each listed compound needs a value for Buffer Stability (37° C.) % Remaining (at 16-23 hours) pH 4.5
1. COc1ccc2c(c1)c(/C=C1\Oc3cc(OC(=O)N(C)c4ccccc4)cc(OC(=O)N(C)c4ccccc4)c3C1=O)cn2CCCN(C)C
2. COc1ccc2[nH]c(-c3ccccc3)c(/C=C3\Oc4cc(OC(=O)N(C)C)ccc4C3=O)c2c1
3. COc1ccc2c(c1)c(/C=C1\Oc3cc(OC(=O)N(C(C)C)C(C)C)ccc3C1=O)c(C)n2CCN1CCN(C)CC1

Result:
100
100
100

Source: patent US20100061982A1
